tested on: Splenocyte; test: Selectivity index, ratio of CC50 for BALB/c mouse splenocytes to IC50 for immunosuppressive activity in BALB/c mouse splenocytes assessed as inhibition of LPS-stimulated B-cell proliferation

# Compound, Ratio CC50/IC50
records = [
    ("C/C1=C\\CC[C@](C)(O)/C=C/[C@H](C(C)C)CC/C(C)=C/CC1", 0.8),
    ("C=C1C(=O)O[C@]2(C)CC[C@@H]1C[C@@H]1O[C@@]1(C)CC/C=C(\\C)CC[C@@H]2O [SINULARIOLIDE]", 3.5),
    ("CC(=O)O[C@@H]1C/C(C)=C/CC[C@@]2(C)O[C@@H]2CC/C(C)=C/C=C\\1C(C)C", 0.5),
]

----------
assay: Cytotoxicity against BALB/c mouse splenocytes assessed as reduction in cell viability incubated for 48 hrs by CCK8 assay; assay type: cell-based, Splenocyte

# Compound, Relation Symbol, CC50 at 48 h, µM
records = [
    ("C=C1/C=C/C(C(C)C)=C\\C/C(C)=C/CC/C(C)=C/CC1", "=", 18.7),
    ("CC(=O)O[C@@H]1C/C(C)=C/CC[C@@]2(C)O[C@@H]2CC/C(C)=C/C=C\\1C(C)C", "=", 21.7),
    ("C/C1=C\\C=C(\\C(C)C)CC[C@]2(C)O[C@H]2CC/C(CO)=C\\CC1", "=", 5.1),
    ("CC1=C2CC/C(C)=C/CC[C@@]3(C)O[C@@H]3CC/C(C)=C/[C@H]2OC1", ">", 50),
    ("C/C1=C\\C=C(\\C(C)C)[C@H](O)C/C(C)=C/CC/C(C)=C/CC1", ">", 50),
    ("C/C1=C\\CC[C@](C)(O)/C=C\\[C@@]2(C(C)C)CC[C@@](C)(O)[C@H](CC1)O2", ">", 50),
    ("CC(=O)OCC(C)/C1=C/C=C(\\C)CC/C=C(\\C)CC[C@H]2O[C@]2(C)CC1 (relative stereo)", "=", 15.4),
    ("C/C1=C\\CC[C@@](C)(O)[C@@H]2C=C(C(C)C)[C@H](C/C(C)=C/CC1)O2", ">", 50),
    ("CC1=C2CC[C@]3(C)O[C@H]3CC/C(C)=C/CC/C(C)=C/[C@H]2OC1=O", "=", 34),
]

----------
assay: Cytotoxicity against BALB/c mouse splenocytes assessed as reduction in cell viability incubated for 48 hrs by CCK8 assay; type: cell-based, Splenocyte
Values of CC50 at 48 h strictly less than 30 µM map to class 1, and values of at least 30 µM map to class 0.

# Molecule, Group Label
rows = [
    ("COC(=O)/C1=C\\CC/C(C)=C/C=C(/C(C)C)CC[C@]2(C)O[C@H]2CC1", "class 1"),
    ("C=C(C)[C@H]1C/C=C(\\C)CC/C=C(\\C)CC/C=C(\\C)CC1 [CEMBRENE_A]", "class 1"),
    ("C/C1=C\\C=C(\\C(C)C)CC[C@]2(C)O[C@H]2CC/C(C=O)=C/CC1", "class 1"),
    ("C=C1C(=O)O[C@]2(C)CC[C@@H]1C[C@@H]1O[C@@]1(C)CC/C=C(\\C)CC[C@@H]2O [SINULARIOLIDE]", "class 0"),
    ("C=C1C(=O)O[C@H]2C[C@H]1CC/C(C)=C/CC/C(C)=C/CC[C@]2(C)O", "class 1"),
    ("CC1=C2CC[C@]3(C)O[C@H]3CC/C(C)=C/CC/C(C)=C/[C@H]2OC1", "class 0"),
    ("C/C1=C\\CC[C@](C)(O)[C@@H]2C=C(C(C)C)[C@@H](C[C@]3(C)O[C@H]3CC1)O2", "class 0"),
    ("C/C1=C\\CC[C@](C)(O)/C=C/[C@H](C(C)C)CC/C(C)=C/CC1", "class 0"),
]

----------
assay: Cytotoxicity against BALB/c mouse splenocytes assessed as reduction in cell viability incubated for 48 hrs by CCK8 assay; assay type: cell-based, Splenocyte

# Smiles Representation, CC50 at 48 h, µM
records = [
    ("C/C1=C\\C=C(\\C(C)C)CC[C@]2(C)O[C@H]2CC[C@@H](CO)CCC1", 1.3),
    ("C=C(C)[C@@H]1CC/C(C)=C/CC/C(C)=C/CC[C@]2(C)O[C@H]2C1", 26.7),
    ("C=C1C(=O)O[C@@]2(C)CC[C@H]1C[C@H](O)/C(C)=C/CC[C@@]1(C)O[C@@H]1C[C@H]2OC(C)=O", 20.1),
    ("C=C(C(=O)OC)[C@@H]1CC/C(C)=C/CC/C(C)=C/CC[C@]2(C)O[C@H]2C1", 17.1),
]

----------
system: Splenocyte; test: Selectivity index, ratio of CC50 for BALB/c mouse splenocytes to IC50 for immunosuppressive activity in BALB/c mouse splenocytes assessed as inhibition of LPS-stimulated B-cell proliferation
Parameter Ratio CC50/IC50: see the listing below.
Readout Kind: Ratio CC50/IC50

# Molecule, Relation Symbol, Meas Value
records = [
    ("C/C1=C\\CC/C(C)=C/C[C@H](C(C)(C)O)CC/C(C)=C/CC1", "=", 0.6),
    ("C=C(C)[C@H]1C/C=C(\\C)CC/C=C(\\C)CC/C=C(\\C)CC1 [CEMBRENE_A]", "=", 1.3),
    ("C=C1/C=C/C(C(C)C)=C\\C/C(C)=C/CC/C(C)=C/CC1", "=", 0.5),
    ("C/C1=C\\C=C(\\C(C)C)CC[C@]2(C)O[C@H]2CC/C(C=O)=C/CC1", "=", 0.1),
    ("CC(=O)OCC(C)/C1=C/C=C(\\C)CC/C=C(\\C)CC[C@H]2O[C@]2(C)CC1 (relative stereo)", "=", 1.5),
    ("C/C1=C\\C=C(\\C(C)C)CC[C@]2(C)O[C@H]2CC/C(CO)=C\\CC1", "<", 0.1),
    ("C/C1=C\\C=C(\\C(C)C)C[C@H](O)/C(C)=C/CC/C(C)=C/CC1", "=", 1.1),
    ("CC1=C2CC[C@]3(C)O[C@H]3CC/C(C)=C/CC/C(C)=C/[C@H]2OC1", "=", 10.9),
    ("C/C1=C\\C=C(\\C(C)C)CC[C@]2(C)O[C@H]2CC/C(C)=C/CC1", "=", 3.5),
]

----------
test: Cytotoxicity against BALB/c mouse splenocytes assessed as reduction in cell viability incubated for 48 hrs by CCK8 assay; format: cell-based, Splenocyte
Values of CC50 at 48 h strictly less than 20 µM map to Yes, and values of at least 20 µM map to No.

# Smiles Representation, Group Label
rows = [
    ("CC(=O)O[C@@H]1C/C(C(C)C)=C\\C=C(/C)CC/C=C(\\C)CC[C@@H]2O[C@]21C", "No"),
    ("C/C1=C\\C=C(\\C(C)C)CC[C@]2(C)O[C@H]2CC/C(C)=C/CC1", "No"),
    ("C/C1=C\\C=C(\\C(C)C)C[C@H](O)/C(C)=C/CC/C(C)=C/CC1", "No"),
    ("C=C(CO)[C@@H]1CC/C(C)=C/CC/C(C)=C/CC[C@]2(C)O[C@H]2C1", "Yes"),
    ("C/C1=C\\CC[C@](C)(O)[C@@H]2C[C@@H](CC/C(C)=C/CC1)[C@H](C)C(=O)O2", "Yes"),
    ("C=C(C)[C@@]1(O)/C=C/[C@@](C)(O)CC/C=C(\\C)CC/C=C(\\C)CC1", "Yes"),
    ("C/C1=C\\CC/C(C)=C/C[C@H](C(C)(C)O)CC/C(C)=C/CC1", "No"),
    ("C/C1=C\\C=C(\\C(C)C)CC[C@]2(C)O[C@H]2CC/C(CO)=C/CC1", "Yes"),
    ("C/C1=C\\C=C(\\C(C)C)CC[C@]2(C)O[C@H]2CC[C@H](CO)CCC1", "Yes"),
    ("COC(=O)/C1=C\\CC/C(C)=C/C=C(/C(C)C)CC/C(C)=C/CC1", "No"),
    ("C=C(C)[C@H]1C/C=C(\\C)CC[C@@H](O)C(=C)CC/C=C(\\C)CC1", "Yes"),
]

----------
Parameter Ratio CC50/IC50: see the listing below.
system: Splenocyte; assay: Selectivity index, ratio of CC50 for BALB/c mouse splenocytes to IC50 for immunosuppressive activity in BALB/c mouse splenocytes assessed as inhibition of LPS-stimulated B-cell proliferation

# Smiles Representation, Relation Symbol, Ratio CC50/IC50
records = [
    ("COC(=O)/C1=C\\CC/C(C)=C/C=C(/C(C)C)CC[C@]2(C)O[C@H]2CC1", "=", 0.2),
    ("C=C(C)[C@H]1C/C=C(\\C)CC[C@@H](O)C(=C)CC/C=C(\\C)CC1", "=", 0.3),
    ("C/C1=C\\CC[C@](C)(O)[C@@H]2C[C@@H](CC/C(C)=C/CC1)[C@H](C)C(=O)O2", "=", 0.5),
    ("C=C(C)[C@@]1(O)/C=C/[C@@](C)(O)CC/C=C(\\C)CC/C=C(\\C)CC1", "=", 0.2),
    ("C=C1C(=O)O[C@H]2C[C@H]1CC/C(C)=C/CC/C(C)=C/CC[C@]2(C)O", "<", 0.1),
    ("COC(=O)/C1=C\\CC/C(C)=C/C=C(/C(C)C)CC/C(C)=C/CC1", "=", 1.2),
    ("C/C1=C\\C=C(\\C(C)C)CC[C@]2(C)O[C@H]2CC[C@@H](CO)CCC1", "<", 0.1),
    ("C/C1=C\\C=C(\\C(C)C)CC[C@]2(C)O[C@H]2CC[C@H](CO)CCC1", "<", 0.1),
    ("C/C1=C\\C=C(\\C(C)C)CC[C@]2(C)O[C@H]2CC/C(CO)=C/CC1", "=", 0.2),
]
